Let's look at some compounds and their measured IC50.
- experimental-system: CDK4/cyclinD1 (Homo sapiens)
- assay-info: In vitro filtration assay for CDK4 inhibitory activity (pRb phosphorylation, [33P]-ATP)
- Format: biochemical
- condition-summary: GST-pRb substrate, 1 μM unlabeled ATP, 25° C. 45 minutes, read-out: cdk4 filter (pIC50) (converted)

compound: O=c1[nH]n(C2CCCC2)c2nc(Nc3ccc(N4CCC(CCCO)CC4)cc3)ncc12 [compound 92]
IC50, nM: 6310
//
compound: CC(C)(O)CN1CCN(Cc2ccc(Nc3ncc4cnn(C5CCOCC5)c4n3)cc2)CC1 [compound 53]
IC50, nM: 501
//
compound: OCCCC1CCN(c2ccc(Nc3ncc4cnn(C5CCCCC5)c4n3)cc2)CC1 [compound 10]
IC50, nM: 79.4
//
compound: CN1CCN(c2ccc(Nc3ncc4cnn(C5CCOCC5)c4n3)cc2)CC1 [compound 27]
IC50, nM: 200
//
compound: CN1CCN(c2ccc(Nc3ncc4cnn([C@H]5C[C@@H]6CC[C@H]5C6)c4n3)cc2)CC1 (single isomer, unassigned) [Co. No. 23]
IC50, nM: 5.01
//
compound: c1cc(Nc2ncc3cnn(C4CCOCC4)c3n2)ccc1CN1CCOCC1 [compound 51]
IC50, nM: 5010
//
compound: OCCN1CCN(Cc2ccc(Nc3ncc4cnn(C5CCCCC5)c4n3)cc2)CC1 [Co. No. 37]
IC50, nM: 7.94
//
compound: CN1CCN(c2ccc(Nc3ncc4cnn(-c5ccccc5)c4n3)cc2)CC1 [compound 14]
IC50, nM: 20

* * *

- experimental-system: AURORA B (Homo sapiens, UniProt Q96GD4)
- Sequence (Q96GD4 whole entry): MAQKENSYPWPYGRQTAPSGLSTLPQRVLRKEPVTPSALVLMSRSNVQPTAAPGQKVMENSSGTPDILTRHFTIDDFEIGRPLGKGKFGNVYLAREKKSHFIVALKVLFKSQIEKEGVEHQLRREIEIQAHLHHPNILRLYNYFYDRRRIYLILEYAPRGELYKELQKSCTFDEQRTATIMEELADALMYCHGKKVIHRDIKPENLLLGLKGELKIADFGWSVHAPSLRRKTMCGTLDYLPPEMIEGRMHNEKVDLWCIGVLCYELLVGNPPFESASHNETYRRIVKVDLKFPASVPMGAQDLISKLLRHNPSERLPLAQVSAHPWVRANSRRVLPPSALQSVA
- assay-info: In vitro filtration assay for AURORA B inhibitory activity
- Assay type: biochemical
- condition-summary: peptide (C(LRRWSLG)×4), 1 μM unlabeled ATP, 25° C. 40 minutes, read-out: Aurora B see C.3 (pIC50) (converted)

molecule: O=C(c1ccc(Nc2ncc3cnn(C4CCCCC4)c3n2)cc1)N1CCOCC1 [compound 56]
IC50: 3.16 µM

molecule: CN1CCN(Cc2ccc(Nc3ncc4cnn([C@H]5C[C@@H]6CC[C@H]5C6)c4n3)cc2)CC1 [compound 40]
IC50: 0.398 µM

molecule: CN1CCN(C(=O)c2ccc(Nc3ncc4cnn([C@H]5C[C@@H]6CC[C@H]5C6)c4n3)cc2)CC1 [compound 57]
IC50: 7.94 µM

molecule: O=c1[nH]c2cnc(Nc3ccc(N4CCOCC4)nc3)nc2n1C1CCCCC1 [compound 81]
IC50: > 10 µM

molecule: c1cc(Nc2ncc3cnn(C4CCOCC4)c3n2)ccc1CN1CCOCC1 [compound 51]
IC50: > 10 µM

molecule: CC(C)(O)CN1CCN(C(=O)c2ccc(Nc3ncc4cnn(C5CCCCC5)c4n3)cc2)CC1 [compound 58]
IC50: 1.26 µM

molecule: COCCCN1CCC(NCc2ccc(N(C(=O)OC(C)(C)C)c3ncc4cnn(C5CCCCC5)c4n3)cc2)CC1 [compound 76]
IC50: > 10 µM

molecule: COCCCN1CCN(Cc2ccc(N(C(=O)OC(C)(C)C)c3ncc4cnn(C5CCCCC5)c4n3)cc2)CC1 [compound 42]
IC50: > 10 µM

molecule: OCCCC1CCN(c2ccc(Nc3ncc4cnn(C5CCCC5)c4n3)cc2)CC1 [compound 13]
IC50: > 10 µM

molecule: CC(C)(C)OC(=O)N(c1ccc(CN2CCN(CCO)CC2)cc1)c1ncc2cnn(C3CCOCC3)c2n1 [compound 55]
IC50: > 10 µM

molecule: O=c1[nH]c2cnc(Nc3ccc(S(=O)(=O)N4CCOCC4)cc3)nc2n1C1CCCCC1 [compound 85]
IC50: > 10 µM

molecule: CC(=O)N1CCN(c2ccc(Nc3ncc4[nH]c(=O)n(C5CCCCC5)c4n3)cc2)CC1 [compound 80]
IC50: > 10 µM

molecule: c1cc(Nc2ncc3cnn(C4CCCCC4)c3n2)ccc1CNC1CCNCC1 [compound 59]
IC50: > 10 µM

molecule: CN1CCC(NCc2ccc(N(C(=O)OC(C)(C)C)c3ncc4cnn([C@H]5C[C@@H]6CC[C@H]5C6)c4n3)cc2)CC1 [compound 68]
IC50: 7.94 µM

molecule: CC(C)(C)OC(=O)N(c1ccc(CNC2CCOCC2)cc1)c1ncc2cnn(C3CCCCC3)c2n1 [compound 66]
IC50: > 10 µM

molecule: c1cc(Nc2ncc3cnn(C4CCCCC4)c3n2)ccc1CNCCN1CCOCC1 [Co. No. 4]
IC50: > 1.58 µM

molecule: NS(=O)(=O)N1CCN(Cc2ccc(Nc3ncc4cnn(C5CCCCC5)c4n3)cc2)CC1 [compound 34]
IC50: > 10 µM

molecule: OCCN1CCN(c2ccc(Nc3ncc4cnn(C5CCCCC5)c4n3)cc2)CC1 [Co. No. 15]
IC50: > 10 µM

molecule: OCCN1CCN(Cc2ccc(Nc3ncc4cnn(C5CCCCC5)c4n3)cc2)CC1 [Co. No. 37]
IC50: 0.398 µM

molecule: CN1CCN(c2ccc(Nc3ncc4[nH]c(=O)n(C5CCCCC5)c4n3)cc2)CC1 [Co. No. 6]
IC50: > 10 µM

molecule: c1cc(Nc2ncc3cnn(C4CCCCC4)c3n2)ncc1N1CCOCC1 [compound 28]
IC50: > 10 µM

molecule: CN1CCN(Cc2ccc(N(C(=O)OC(C)(C)C)c3ncc4cnn(C5CCOCC5)c4n3)cc2)CC1 [compound 48]
IC50: > 10 µM

molecule: c1ccc(N2CCN(Cc3ccc(Nc4ncc5cnn(C6CCCCC6)c5n4)cc3)CC2)nc1 [compound 35]
IC50: > 10 µM

molecule: CN1CCN(Cc2ccc(Nc3ncc4[nH]c(=O)n(C5CCCCC5)c4n3)cc2)CC1 [compound 79]
IC50: > 10 µM

molecule: CN1CCC(NCc2ccc(Nc3ncc4cnn(C5CCOCC5)c4n3)cc2)CC1 [compound 73]
IC50: > 10 µM

molecule: CN1CCN(c2ccc(Nc3ncc4cnn([C@H]5C[C@@H]6CC[C@H]5C6)c4n3)cc2)CC1 [compound 16]
IC50: > 10 µM

molecule: OCCN1CCN(Cc2ccc(Nc3ncc4cnn(C5CCOCC5)c4n3)cc2)CC1 [compound 54]
IC50: > 10 µM

molecule: CC(C)(C)OC(=O)N(c1ccc(CN2CCOCC2)cc1)c1ncc2cnn(C3CCOCC3)c2n1 [compound 50]
IC50: > 10 µM

molecule: c1cc(N2CCNCC2)ccc1Nc1ncc2cnn(C3CCCCC3)c2n1 [compound 26]
IC50: 1.26 µM

molecule: COCCCN1CCC(NCc2ccc(Nc3ncc4cnn(C5CCCCC5)c4n3)cc2)CC1 [compound 77]
IC50: 2 µM

molecule: c1cc(Nc2ncc3cnn(C4CCCCC4)c3n2)ncc1N1CCNCC1 [compound 30]
IC50: > 10 µM

molecule: CN1CCN(Cc2ccc(Nc3ncc4cnn(C5CCCCC5)c4n3)cc2)CC1 [Co. No. 2]
IC50: > 10 µM

molecule: CC(C)(O)CN1CCC(NCc2ccc(Nc3ncc4cnn(C5CCCCC5)c4n3)cc2)CC1 [compound 63]
IC50: 2.51 µM

* * *

- experimental-system: CDK4/cyclinD1 (Homo sapiens, UniProt P11802)
- Sequence (P11802 whole entry): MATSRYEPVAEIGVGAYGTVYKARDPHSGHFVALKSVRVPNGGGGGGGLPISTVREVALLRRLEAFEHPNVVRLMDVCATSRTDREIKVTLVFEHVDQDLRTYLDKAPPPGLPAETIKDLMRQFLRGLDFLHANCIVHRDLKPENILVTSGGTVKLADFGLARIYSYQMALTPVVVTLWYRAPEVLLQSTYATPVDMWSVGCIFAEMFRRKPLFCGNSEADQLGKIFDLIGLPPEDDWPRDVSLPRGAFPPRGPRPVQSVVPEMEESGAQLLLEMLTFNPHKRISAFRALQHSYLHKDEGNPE
- Sequence (P24385 whole entry partner): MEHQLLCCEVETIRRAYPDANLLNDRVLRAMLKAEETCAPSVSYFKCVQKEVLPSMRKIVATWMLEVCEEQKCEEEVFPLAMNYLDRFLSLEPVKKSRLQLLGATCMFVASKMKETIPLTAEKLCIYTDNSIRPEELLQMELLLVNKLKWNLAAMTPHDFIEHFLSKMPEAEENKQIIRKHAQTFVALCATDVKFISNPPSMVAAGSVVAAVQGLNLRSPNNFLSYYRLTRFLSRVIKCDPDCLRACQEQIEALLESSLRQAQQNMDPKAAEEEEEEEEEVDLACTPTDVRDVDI
- assay-info: In vitro filtration assay for CDK4 inhibitory activity (pRb phosphorylation, [33P]-ATP)
- Format: biochemical
- condition-summary: GST-pRb substrate, 1 μM unlabeled ATP, 25° C. 45 minutes, read-out: cdk4 filter (pIC50) (converted)
metric: IC50 (nM)

smi: O=S(=O)(c1ccc(Nc2ncc3cnn(C4CCCCC4)c3n2)cc1)N1CCOCC1
recorded-result: 100
//
smi: CN1CCN(C(=O)c2ccc(Nc3ncc4cnn([C@H]5C[C@@H]6CC[C@H]5C6)c4n3)cc2)CC1
recorded-result: 100
//
smi: O=C(NCCN1CCOCC1)c1ccc(Nc2ncc3cnn(C4CCCCC4)c3n2)cc1
recorded-result: 631
//
smi: c1cc(Nc2ncc3cnn(C4CCCCC4)c3n2)ccc1CNC1CCOCC1
recorded-result: 251

* * *

- experimental-system: CDK4/cyclinD1 (Homo sapiens, UniProt P11802)
- assay-info: In vitro filtration assay for CDK4 inhibitory activity (pRb phosphorylation, [33P]-ATP)
- Format: biochemical
- condition-summary: GST-pRb substrate, 1 μM unlabeled ATP, 25° C. 45 minutes, read-out: cdk4 filter (pIC50) (converted)
Note to self: class = bucket of IC50, per low interval (below 60 nM), middle interval (60 nM to below 800 nM), high interval (800 nM or more)

compound: c1ccc(N2CCN(c3ccc(Nc4ncc5cnn(C6CCCCC6)c5n4)cc3)CC2)nc1 [compound 22]
category-label: middle interval
//
compound: CN1CCN(c2ccc(Nc3ncc4cnn(C5CCCCC5)c4n3)cc2Cl)CC1 [compound 18]
category-label: middle interval
//
compound: O=c1[nH]c2cnc(Nc3ccc(S(=O)(=O)N4CCOCC4)cc3)nc2n1C1CCCCC1 [compound 85]
category-label: high interval
//
compound: OC1CCN(c2ccc(Nc3ncc4cnn(C5CCCCC5)c4n3)cc2)CC1 [compound 20]
category-label: low interval
//
compound: CN1CCN(Cc2ccc(Nc3ncc4cnn(C5CCOCC5)c4n3)cc2)CC1 [compound 49]
category-label: high interval
//
compound: c1cc(Nc2ncc3cnn(C4CCCCC4)c3n2)ncc1N1CCOCC1 [compound 28]
category-label: high interval
//
compound: CN1CCN(C(=O)c2ccc(Nc3ncc4[nH]c(=O)n(C5CCCCC5)c4n3)cc2)CC1 [compound 83]
category-label: high interval
//
compound: COCCCC(=O)N1CCN(Cc2ccc(Nc3ncc4cnn(C5CCCCC5)c4n3)cc2)CC1 [compound 45]
category-label: middle interval
//
compound: COCCCNC1CCN(Cc2ccc(Nc3ncc4cnn(C5CCCCC5)c4n3)cc2)CC1 [compound 47]
category-label: low interval
//
compound: CN1CCN(c2ccc(Nc3ncc4cnn([C@H]5C[C@@H]6CC[C@H]5C6)c4n3)cc2)CC1 [compound 16]
category-label: low interval
//
compound: CN(C)CCOC(=O)c1ccc(Nc2ncc3[nH]c(=O)n(C4CCCCC4)c3n2)cc1 [compound 82]
category-label: high interval
//
compound: CN1CCN(c2ccc(Nc3ncc4cnn(C5CCCCC5)c4n3)cc2)CC1 [Co. No. 1]
category-label: low interval
//
compound: CC(C)(O)CN1CCC(NC(=O)c2ccc(Nc3ncc4cnn(C5CCCCC5)c4n3)cc2)CC1 [compound 98]
category-label: middle interval
//
compound: CN1CCN(c2ccc(Nc3ncc4c(=O)[nH]n(C5CCCCC5)c4n3)cc2)CC1 [Co. No. 7]
category-label: middle interval
//
compound: O=c1[nH]c2cnc(Nc3ccc(CNC4CCNCC4)cc3)nc2n1C1CCCCC1 [compound 86]
category-label: high interval
//
compound: CN1CCN(Cc2ccc(Nc3ncc4cnn([C@H]5C[C@@H]6CC[C@H]5C6)c4n3)cc2)CC1 [compound 40]
category-label: middle interval
//
compound: CN1CCN(c2ccc(Nc3ncc4c(=O)[nH]n(C5CCCC5)c4n3)cc2)CC1 [compound 91]
category-label: middle interval
//
compound: CC(C)(O)C(=O)N1CCN(c2ccc(Nc3ncc4cnn(C5CCCCC5)c4n3)cc2)CC1 [compound 31]
category-label: low interval
